Task for the reader: assign each of the following compounds its reported TGI.
# Test system: Tumor Cell line
# test-details: Drug concentration required to inhibit total cell growth
# Assay type: functional, Homo sapiens
# condition-parameters: Homo sapiens, Tumor Cell line; read-out: Log TGI (converted)
Numbers only, in nM.

test-smiles: COc1cc([C@@H]2c3cc4c(cc3[C@@H](NCCCN(C)C)[C@H]3COC(=O)[C@H]23)OCO4)cc(OC)c1O
TGI / nM: 2820

Please supply TGI for each of the following items, keeping them in order.
1. COc1cc([C@@H]2c3cc4c(cc3[C@@H](NCCN3CCOCC3)[C@H]3COC(=O)[C@H]23)OCO4)cc(OC)c1O
2. CCOC(=O)N1CCC(N[C@@H]2c3cc4c(cc3[C@@H](c3cc(OC)c(O)c(OC)c3)[C@H]3C(=O)OC[C@@H]32)OCO4)CC1
3. COc1cc([C@@H]2c3cc4c(cc3[C@@H](NCCN3CCCCC3)[C@H]3COC(=O)[C@H]23)OCO4)cc(OC)c1O
4. CCOC(=O)CC[C@H](NC(=O)c1ccc(N[C@@H]2c3cc4c(cc3[C@@H](c3cc(OC)c(O)c(OC)c3)[C@H]3C(=O)OC[C@@H]32)OCO4)cc1)C(=O)OCC

Solution:
[10000, 7760, 3720, 339]

###

Task for the reader: assign each of the following compounds its reported pIC50.
# Test system: KB
# test-details: 50% reduction in the number of KB V20C resistant variant
# Assay type: functional, Homo sapiens
# condition-parameters: Homo sapiens, KB; read-out: ID50 (the source's name)
Give bare numbers, as −log10 of the molar value.

Reference set, count: 2
compound: COc1cc([C@@H]2c3cc4c(cc3[C@@H](NC3CCN(Cc5ccccc5)CC3)[C@H]3COC(=O)[C@H]23)OCO4)cc(OC)c1O
pIC50: 7.67

compound: COc1cc([C@@H]2c3cc4c(cc3[C@@H](O[C@@H]3O[C@@H]5CO[C@@H](C)O[C@H]5[C@H](O)[C@H]3O)[C@H]3COC(=O)[C@H]23)OCO4)cc(OC)c1O [ETOPOSIDE]
pIC50: 5.64

Exercise: Fill blank: measured pIC50 of the compound COc1cc([C@@H]2c3cc4c(cc3[C@@H](NCCN(C)C)[C@H]3COC(=O)[C@H]23)OCO4)cc(OC)c1O is ____.
Solution: 6.36

###

# System: Tumor Cell line
# test-details: Drug molar concentration required to inhibit 50% of human tumor cell growth
# Assay type: functional
# condition-parameters: Homo sapiens, Tumor Cell line
recorded-metric: GI50 (µM)
One number for each entry, in µM.

test-smiles: CCOC(=O)CC[C@H](NC(=O)c1ccc(N[C@@H]2c3cc4c(cc3[C@@H](c3cc(OC)c(O)c(OC)c3)[C@H]3C(=O)OC[C@@H]32)OCO4)cc1)C(=O)OCC
recorded-metric: GI50
measured: 0.0501
--
test-smiles: COc1cc([C@@H]2c3cc4c(cc3[C@@H](NCCN(C)C)[C@H]3COC(=O)[C@H]23)OCO4)cc(OC)c1O
recorded-metric: GI50
measured: 0.263

Exercise: Fill blank: measured GI50 of the compound COc1cc([C@@H]2c3cc4c(cc3[C@@H](NCCCN(C)C)[C@H]3COC(=O)[C@H]23)OCO4)cc(OC)c1O is ____.
Solution: 0.55

###

# Tested on: Tumor Cell line
# test-details: Drug molar concentration required to inhibit 50% of human tumor cell growth
# Type: functional
Task for the reader: assign each of the following compounds its reported GI50.
Give bare numbers, in µM.

Reference set, count: 4
test-smiles: COc1cc([C@@H]2c3cc4c(cc3[C@@H](Nc3ccc(C(=O)O)cc3)[C@H]3COC(=O)[C@H]23)OCO4)cc(OC)c1O
unit-annotation: µM
GI50: 12.9
//
test-smiles: COc1cc([C@@H]2c3cc4c(cc3[C@@H](NCCCN(C)C)[C@H]3COC(=O)[C@H]23)OCO4)cc(OC)c1O
unit-annotation: µM
GI50: 0.331
//
test-smiles: CCOC(=O)N1CCC(N[C@@H]2c3cc4c(cc3[C@@H](c3cc(OC)c(O)c(OC)c3)[C@H]3C(=O)OC[C@@H]32)OCO4)CC1
unit-annotation: µM
GI50: 1.78
//
test-smiles: COc1cc([C@@H]2c3cc4c(cc3[C@@H](NCCN3CCOCC3)[C@H]3COC(=O)[C@H]23)OCO4)cc(OC)c1O
unit-annotation: µM
GI50: 1.82

Now, please, on to the next compound.
Exercise: Fill blank: measured GI50 of the compound COc1cc([C@@H]2c3cc4c(cc3[C@@H](NC3CCN(Cc5ccccc5)CC3)[C@H]3COC(=O)[C@H]23)OCO4)cc(OC)c1O is ____.
Solution: 0.174

###

# Tested on: Tumor Cell line
# test-details: Drug molar concentration required to inhibit 50% of human tumor cell growth
# Format: functional
# condition-parameters: Homo sapiens, Tumor Cell line
Threshold 400 nM. GI50 below it: fulfilled. GI50 at it or above: not fulfilled.

Exercise: Report whether reported GI50 is lower than 400 nM (strictly) for COc1cc([C@@H]2c3cc4c(cc3[C@@H](Nc3ccc(C(=O)O)cc3)[C@H]3COC(=O)[C@H]23)OCO4)cc(OC)c1O
Solution: not fulfilled

Exercise: Report whether reported GI50 is lower than 400 nM (strictly) for COc1cc([C@@H]2c3cc4c(cc3[C@@H](NC3CCN(Cc5ccccc5)CC3)[C@H]3COC(=O)[C@H]23)OCO4)cc(OC)c1O
Solution: fulfilled

Exercise: Report whether reported GI50 is lower than 400 nM (strictly) for COc1cc([C@@H]2c3cc4c(cc3[C@@H](NCCN3CCOCC3)[C@H]3COC(=O)[C@H]23)OCO4)cc(OC)c1O
Solution: not fulfilled

Exercise: Report whether reported GI50 is lower than 400 nM (strictly) for COc1cc([C@@H]2c3cc4c(cc3[C@@H](NCCN3CCCCC3)[C@H]3COC(=O)[C@H]23)OCO4)cc(OC)c1O
Solution: not fulfilled

Exercise: Report whether reported GI50 is lower than 400 nM (strictly) for CCOC(=O)N1CCC(N[C@@H]2c3cc4c(cc3[C@@H](c3cc(OC)c(O)c(OC)c3)[C@H]3C(=O)OC[C@@H]32)OCO4)CC1
Solution: not fulfilled

Exercise: Report whether reported GI50 is lower than 400 nM (strictly) for COc1cc([C@@H]2c3cc4c(cc3[C@@H](NCCN(C)C)[C@H]3COC(=O)[C@H]23)OCO4)cc(OC)c1O
Solution: fulfilled

###

# Tested on: Tumor Cell line
# test-details: Drug concentration required to cause 50% cell death
# Type: functional, Homo sapiens
# condition-parameters: Homo sapiens, Tumor Cell line
recorded-metric: LC50 (µM)
Answers are plain numbers, in µM.

Reference set, count: 2
test-smiles: CCOC(=O)CC[C@H](NC(=O)c1ccc(N[C@@H]2c3cc4c(cc3[C@@H](c3cc(OC)c(O)c(OC)c3)[C@H]3C(=O)OC[C@@H]32)OCO4)cc1)C(=O)OCC
recorded-metric: LC50
measured: 2.88

test-smiles: COc1cc([C@@H]2c3cc4c(cc3[C@@H](NCCN3CCCCC3)[C@H]3COC(=O)[C@H]23)OCO4)cc(OC)c1O
recorded-metric: LC50
measured: 36.3

Exercise: Fill blank: measured LC50 of the compound COc1cc([C@@H]2c3cc4c(cc3[C@@H](NCCCN(C)C)[C@H]3COC(=O)[C@H]23)OCO4)cc(OC)c1O is ____.
Solution: 13.5

###

# experimental-target: DNA topoisomerase II (Homo sapiens) (UniProt P11388+Q02880)
# test-details: 50% inhibition of human DNA topoisomerase II
# Assay type: protein assay
Task for the reader: assign each of the following compounds its reported ID50.

Reference set, count: 5
test-smiles: COc1cc([C@@H]2c3cc4c(cc3[C@@H](NC3CCN(Cc5ccccc5)CC3)[C@H]3COC(=O)[C@H]23)OCO4)cc(OC)c1O
recorded-metric: ID50
measured: 100 µM

test-smiles: CCOC(=O)N1CCC(N[C@@H]2c3cc4c(cc3[C@@H](c3cc(OC)c(O)c(OC)c3)[C@H]3C(=O)OC[C@@H]32)OCO4)CC1
recorded-metric: ID50
measured: 25 µM

test-smiles: COc1cc([C@@H]2c3cc4c(cc3[C@@H](Nc3ccc(C(=O)O)cc3)[C@H]3COC(=O)[C@H]23)OCO4)cc(OC)c1O
recorded-metric: ID50
measured: > 100 µM

test-smiles: CCOC(=O)CC[C@H](NC(=O)c1ccc(N[C@@H]2c3cc4c(cc3[C@@H](c3cc(OC)c(O)c(OC)c3)[C@H]3C(=O)OC[C@@H]32)OCO4)cc1)C(=O)OCC
recorded-metric: ID50
measured: 100 µM

test-smiles: COc1cc([C@@H]2c3cc4c(cc3[C@@H](NCCN(C)C)[C@H]3COC(=O)[C@H]23)OCO4)cc(OC)c1O
recorded-metric: ID50
measured: 25 µM

Please supply ID50 for each of the following items, keeping them in order.
1. COc1cc([C@@H]2c3cc4c(cc3[C@@H](NCCN3CCOCC3)[C@H]3COC(=O)[C@H]23)OCO4)cc(OC)c1O
2. COc1cc([C@@H]2c3cc4c(cc3[C@@H](NCCCN(C)C)[C@H]3COC(=O)[C@H]23)OCO4)cc(OC)c1O

Solution:
["50 µM", "25 µM"]
